As shown below, each of these binders has a reported IC50 value.
Target: HLA-DR DRB1*0701 on fixed MOU (MANN) cells (human)
Test: competition
Details: modification not given

binder: PLMKEDSILAVRKYF [37]
IC50: > 500 µM
//
binder: VVRAEIMRSFSLSTN [48]
IC50: 7 µM
//
binder: SCLKDRHDFGFPQEE [10]
IC50: > 500 µM
//
binder: GFPQEEFGNQFQKAE [13]
IC50: > 500 µM
//
binder: SLFSCLKDRHDFGFP [9]
IC50: > 500 µM
//
binder: KEDSILAVRKYFQRI [38]
IC50: > 500 µM
//
binder: IQGVGVTETPLMKED [34]
IC50: > 500 µM
//
binder: QEEFGNQFQKAETIP [14]
IC50: > 500 µM
//
binder: KKYSPCAWEVVRAEI [45]
IC50: 200 µM
//
binder: HDFGFPQEEFGNQFQ [12]
IC50: > 500 µM
//
binder: KDRHDFGFPQEEFGN [11]
IC50: > 500 µM
//
binder: AVRKYFQRITLYLKE [40]
IC50: 70 µM
//
binder: FGNQFQKAETIPVLH [15]
IC50: 25 µM
//
binder: TETPLMKEDSILAVR [36]
IC50: > 500 µM
//
binder: SPCAWEVVRAEIMRS [46]
IC50: 8 µM
